assay: chemical genetic growth profiling, strain panel (AID 1159580);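 also: tested at 20 µM; growth read once vehicle control cultures reached saturation at 30 °C; 1 = growth at the plate median or of vehicle wells; lower values mean less growth of the strain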; conditions: S. cerevisiae deletion strains, growth OD, locus YEL003W, strain gim4, active compounds read low
In all, about 5,500 compounds went through this assay and about 2,000 (36%) were called active. About 18% were inconclusive and are not listed. The list shows a part of the results.
measure_name: normalized growth
Give the figure only, with no unit attached.

[
  {
    "compound": "CCCCOC(=O)c1ccc(N)cc1",
    "reported_value": 0.888
  }
]

(Q) Quote normalized growth reported for O=C(O)CN1C(=O)c2cccc3cccc(c23)C1=O please.
(A) 0.99

(Q) Quote normalized growth reported for O=C(O)c1ccccc1-c1c2cc(Br)c(=O)cc-2oc2[c]([Hg])c(O)c(Br)cc12 please.
(A) 1.02

(Q) Quote normalized growth reported for Cc1ccc(C)c(OCCCC(C)(C)C(=O)O)c1 please.
(A) 0.97

(Q) Quote normalized growth reported for O=C1NC(=O)C(=O)C(=O)N1 please.
(A) 0.989

(Q) Quote normalized growth reported for COc1cc2c(cc1OC)C1Cc3ccc(OC)c(OC)c3CN1CC2 (configuration not stated) please.
(A) 0.978
